target: full length active recombinant SYK enzyme (Homo sapiens, UniProt P43405); construct: full length active recombinant SYK enzyme (Millipore, Calif.); purchased Millipore; assay: Inhibition of Syk tyrosine phosphorylation activity (LANCE TR-FRET kinase assay); format: biochemical
Collected IC50 values appear next to each entry.

In [3]: df
Out[3]:
                                   compound  reported_measurement
0  NC(=O)c1cc(F)c(N[C@H](CC2CC2)C(N)=O)nc1Nc1ccc2ncccc2c1 [Example 252]            1 to 10 nM
1  CC[C@@H](Nc1nc(Nc2ccc3cnccc3c2)c(C(N)=O)cc1F)C(N)=O [Example 99]          10 to 100 nM
2  NC(=O)c1cc(F)c(N[C@@H]2CCCC[C@@H]2N)nc1Nc1cc(F)cc(F)c1 [Example 324]            1 to 10 nM
3  NC(=O)c1cc(F)c(N[C@@H]2CCCC[C@@H]2N)nc1Nc1cncc2ccccc12 [Example 71]            1 to 10 nM
4  CC[C@@H](Nc1nc(Nc2ccnc3ccccc23)c(C(N)=O)cc1F)C(N)=O [Example 242]          10 to 100 nM

Input: Please report the recorded IC50 for N#Cc1cc(C(N)=O)c(Nc2cccc(-n3nccn3)c2)nc1N[C@@H]1CCCC[C@@H]1N [Example 106] .
Output: 1 to 10 nM

Input: Please report the recorded IC50 for COc1cncc(Nc2nc(N[C@@H]3CCCC[C@@H]3N)ccc2C(N)=O)c1 [Example 164] .
Output: 1 to 10 nM

Input: Please report the recorded IC50 for NC(=O)c1cc(F)c(N[C@H]2[C@@H](N)CCCC2(F)F)nc1Nc1ccc2ncccc2c1 [Example 343] .
Output: 1 to 10 nM
